- EXPERIMENTAL SYSTEM: CaMyo5
- ASSAY EXPLANATION: SPOT peptide array binding signal intensity (averaged, normalized) (arbitrary units (background-subtracted, floor 0; scale differs between SH3 domains)); higher = stronger binding of the SH3 domain to the peptide
Let's look at some binders and their measured SPOT peptide array binding signal intensity.
READOUT: SPOT peptide array binding signal intensity

BINDER: RRASLFPRDPKRLRP
QUALIFIER OPERATOR: =
QUANTITATIVE READOUT: 4.5
//
BINDER: STKKPRPPVKSKPKH
QUALIFIER OPERATOR: =
QUANTITATIVE READOUT: 2.5
//
BINDER: GRSRLFPHSPLGRSS
QUALIFIER OPERATOR: ≤
QUANTITATIVE READOUT: 0
//
BINDER: AHFQPQRTAPKPPIS
QUALIFIER OPERATOR: =
QUANTITATIVE READOUT: 33.6
//
BINDER: RSRRSSFAYPQQVAI
QUALIFIER OPERATOR: =
QUANTITATIVE READOUT: 7.25
//
BINDER: KKAPPPVVKPKPRNF
QUALIFIER OPERATOR: =
QUANTITATIVE READOUT: 1.5
//
BINDER: SSSSTPPTLPPRRIE
QUALIFIER OPERATOR: ≤
QUANTITATIVE READOUT: 0
